system: human foreskin fibroblasts (HFF); test: Cytotoxicity in non-infected HFF by alamarBlue assay; type: cell-based; settings: 1 µM
// label = rule met if HFF Viability (%) is not less than 80%, otherwise rule not met

The examples below pair each entry with its known result.
# molecule, test-target, label
rows = [
    ("CC(C)(C)c1ccc(C[S]2[Ru]3[S](Cc4ccc(C(C)(C)C)cc4)[Ru+]2[S]3c2ccc(-n3cc(CO)nn3)cc2)cc1.Cc1ccc(C(C)C)cc1.Cc1ccc(C(C)C)cc1.[Cl-]", "human foreskin fibroblasts (HFF)", "rule not met"),
    ("CC(C)(C)c1ccc(C[S]2[Ru]3[S](Cc4ccc(C(C)(C)C)cc4)[Ru+]2[S]3c2ccccc2Cn2cc(Cn3cnc4c(N)ncnc43)nn2)cc1.Cc1ccc(C(C)C)cc1.Cc1ccc(C(C)C)cc1.[Cl-]", "human foreskin fibroblasts (HFF)", "rule not met"),
    ("Cc1ccc(C(C)C)cc1.Cc1ccc(C(C)C)cc1.Cc1cn(Cc2cn(Cc3ccccc3[S+]3[Ru-]4[S+](Cc5ccc(C(C)(C)C)cc5)[Ru-]3[S+]4Cc3ccc(C(C)(C)C)cc3)nn2)c(=O)[nH]c1=O.[Cl-] (stereo not drawn)", "human foreskin fibroblasts (HFF)", "rule not met"),
    ("CC(C)(C)c1ccc(C[S]2[Ru]3[S](Cc4ccc(C(C)(C)C)cc4)[Ru+]2[S]3c2ccc(-n3cc(Cn4cnc5c(N)ncnc54)nn3)cc2)cc1.Cc1ccc(C(C)C)cc1.Cc1ccc(C(C)C)cc1.[Cl-]", "human foreskin fibroblasts (HFF)", "rule not met"),
    ("CC(C)(C)c1ccc(C[S]2[Ru]3[S](Cc4ccc(C(C)(C)C)cc4)[Ru+]2[S]3c2ccccc2Cn2cc(Cn3ccc(N)nc3=O)nn2)cc1.Cc1ccc(C(C)C)cc1.Cc1ccc(C(C)C)cc1.[Cl-]", "human foreskin fibroblasts (HFF)", "rule met"),
]

Below: the item to evaluate.
Check the entry "CC(C)(C)c1ccc(C[S]2[Ru]3[S](Cc4ccc(C(C)(C)C)cc4)[Ru+]2[S]3c2ccc(-n3cc(Cn4ccc(N)nc4=O)nn3)cc2)cc1.Cc1ccc(C(C)C)cc1.Cc1ccc(C(C)C)cc1.[Cl-]" : does HFF Viability (%) equal or exceed 80%?
rule met

====

system: human foreskin fibroblasts (HFF); assay: Cytotoxicity in non-infected HFF by alamarBlue assay; assay type: cell-based; details: 0.1 µM, non-infected HFF, 72 h, relative to DMSO control, triplicate
Would you kindly list HFF Viability (%) for each of these compounds?
Numbers only, in %.

# example entries with known answers
# compound, test-target, HFF Viability (%)
records = [
    ("CC(C)(C)c1ccc(C[S]2[Ru]3[S](Cc4ccc(C(C)(C)C)cc4)[Ru+]2[S]3c2ccccc2Cn2cc(-c3ccccc3)nn2)cc1.Cc1ccc(C(C)C)cc1.Cc1ccc(C(C)C)cc1.[Cl-]", "human foreskin fibroblasts (HFF)", 96),
    ("CC(C)(C)c1ccc(C[S]2[Ru]3[S](Cc4ccc(C(C)(C)C)cc4)[Ru+]2[S]3c2ccccc2Cn2cc(CO)nn2)cc1.Cc1ccc(C(C)C)cc1.Cc1ccc(C(C)C)cc1.[Cl-]", "human foreskin fibroblasts (HFF)", 115),
    ("CC(C)(C)c1ccc(C[S+]2[Ru-]3[S+](Cc4ccc(C(C)(C)C)cc4)[Ru-]2[S+]3c2ccccc2CN=[N+]=[N-])cc1.Cc1ccc(C(C)C)cc1.Cc1ccc(C(C)C)cc1.[Cl-] (stereo not shown)", "human foreskin fibroblasts (HFF)", 96),
    ("CC(C)(C)c1ccc(C[S]2[Ru]3[S](Cc4ccc(C(C)(C)C)cc4)[Ru+]2[S]3c2ccc(-n3cc(Cn4ccc(=O)[nH]c4=O)nn3)cc2)cc1.Cc1ccc(C(C)C)cc1.Cc1ccc(C(C)C)cc1.[Cl-]", "human foreskin fibroblasts (HFF)", 100),
    ("CC(C)(C)c1ccc(C[S]2[Ru]3[S](Cc4ccc(C(C)(C)C)cc4)[Ru+]2[S]3c2ccc(-n3cc(-c4ccccn4)nn3)cc2)cc1.Cc1ccc(C(C)C)cc1.Cc1ccc(C(C)C)cc1.[Cl-]", "human foreskin fibroblasts (HFF)", 94),
    ("C#CCOC(=O)Cc1ccc([S+]2[Ru-]3[S+](Cc4ccc(C(C)(C)C)cc4)[Ru-]2[S+]3Cc2ccc(C(C)(C)C)cc2)cc1.Cc1ccc(C(C)C)cc1.Cc1ccc(C(C)C)cc1.[Cl-] (stereo not shown)", "human foreskin fibroblasts (HFF)", 100),
    ("CNc1cn(CCn2cnc3c(N)ncnc32)nn1", "human foreskin fibroblasts (HFF)", 84),
    ("CC(C)(C)c1ccc(C[S+]2[Ru-]3[S+](Cc4ccc(C(C)(C)C)cc4)[Ru-]2[S+]3c2ccc(N=[N+]=[N-])cc2)cc1.Cc1ccc(C(C)C)cc1.Cc1ccc(C(C)C)cc1.[Cl-] (stereo not shown)", "human foreskin fibroblasts (HFF)", 94),
    ("CC(C)(C)c1ccc(C[S+]2[Ru-]3[S+](Cc4ccc(C(C)(C)C)cc4)[Ru-]2[S+]3c2ccc(CC(=O)OCCn3cnc4c(N)ncnc43)cc2)cc1.Cc1ccc(C(C)C)cc1.Cc1ccc(C(C)C)cc1.[Cl-] (stereo not shown)", "human foreskin fibroblasts (HFF)", 95),
    ("C#Cc1ccc(C(=O)Nc2ccc([S+]3[Ru-]4[S+](Cc5ccc(C(C)(C)C)cc5)[Ru-]3[S+]4Cc3ccc(C(C)(C)C)cc3)cc2)cc1.Cc1ccc(C(C)C)cc1.Cc1ccc(C(C)C)cc1.[Cl-] (stereo not shown)", "human foreskin fibroblasts (HFF)", 95),
]

Batch lookup, HFF Viability (%) per entry.
1. CC(C)(C)c1ccc(C[S]2[Ru]3[S](Cc4ccc(C(C)(C)C)cc4)[Ru+]2[S]3c2ccc(-n3cc(-c4ccccc4)nn3)cc2)cc1.Cc1ccc(C(C)C)cc1.Cc1ccc(C(C)C)cc1.[Cl-]
2. CC(C)(C)c1ccc(C[S]2[Ru]3[S](Cc4ccc(C(C)(C)C)cc4)[Ru+]2[S]3c2ccc(CC(=O)OCc3cn(Cc4cc(=O)[nH]c(=O)[nH]4)nn3)cc2)cc1.Cc1ccc(C(C)C)cc1.Cc1ccc(C(C)C)cc1.[Cl-]
3. NC(=O)CCCc1cn(Cc2cc(=O)[nH]c(=O)[nH]2)nn1
4. CC(C)(C)c1ccc(C[S+]2[Ru-]3[S+](Cc4ccc(C(C)(C)C)cc4)[Ru-]2[S+]3c2ccccc2Cn2cc(Cn3ccc(=O)[nH]c3=O)nn2)cc1.Cc1ccc(C(C)C)cc1.Cc1ccc(C(C)C)cc1.[Cl-] (stereo not shown)

1: 99; 2: 114; 3: 101; 4: 93

Batch lookup, HFF Viability (%) per entry.
1. C#CCCCC(=O)Nc1ccc([S+]2[Ru-]3[S+](Cc4ccc(C(C)(C)C)cc4)[Ru-]2[S+]3Cc2ccc(C(C)(C)C)cc2)cc1.Cc1ccc(C(C)C)cc1.Cc1ccc(C(C)C)cc1.[Cl-] (stereo not shown)
2. Cc1ccc(C(C)C)cc1.Cc1ccc(C(C)C)cc1.Cc1cn(Cc2cn(-c3ccc([S]4[Ru]5[S](Cc6ccc(C(C)(C)C)cc6)[Ru+]4[S]5Cc4ccc(C(C)(C)C)cc4)cc3)nn2)c(=O)[nH]c1=O.[Cl-]

1. 101
2. 98

====

test: Cytotoxicity in non-infected HFF by alamarBlue assay; assay type: cell-based, human; details: human; 0.1 µM, non-infected HFF, 72 h, relative to DMSO control, triplicate
quantity-kind: viability at 72 h, 0.1 µM (%)
Numbers only, in %.

# compound-structure, quantity-kind, unit-info, val
rows = [
    ("C#CCn1cc(C)c(=O)[nH]c1=O.C#CCn1cc(C)c(=O)[nH]c1=O", "viability at 72 h, 0.1 µM", "%", 104),
    ("C#CCn1cnc2c(N)ncnc21.C#CCn1cnc2c(N)ncnc21", "viability at 72 h, 0.1 µM", "%", 96),
    ("[N-]=[N+]=NCCn1cnc2c(N)ncnc21", "viability at 72 h, 0.1 µM", "%", 104),
    ("C#CCn1ccc(=O)[nH]c1=O.C#CCn1ccc(=O)[nH]c1=O", "viability at 72 h, 0.1 µM", "%", 107),
    ("[N-]=[N+]=NCc1cc(=O)[nH]c(=O)[nH]1", "viability at 72 h, 0.1 µM", "%", 98),
]

Pending compound:
The reported viability at 72 h, 0.1 µM of the compound "C#CCn1ccc(N)nc1=O.C#CCn1ccc(N)nc1=O" was 96

====

system: human foreskin fibroblasts (HFF); assay: Cytotoxicity in non-infected HFF by alamarBlue assay; assay type: cell-based; conditions: 0.1 µM
quantity-kind: HFF Viability (%)
Answers are plain numbers, in %.

# molecule, HFF Viability (%)
data = [
    ("CC(C)(C)c1ccc(C[S]2[Ru]3[S](Cc4ccc(C(C)(C)C)cc4)[Ru+]2[S]3c2ccccc2Cn2cc(Cn3cnc4c(N)ncnc43)nn2)cc1.Cc1ccc(C(C)C)cc1.Cc1ccc(C(C)C)cc1.[Cl-]", 102),
    ("CC(C)(C)c1ccc(C[S]2[Ru]3[S](Cc4ccc(C(C)(C)C)cc4)[Ru+]2[S]3c2ccc(-n3cc(CO)nn3)cc2)cc1.Cc1ccc(C(C)C)cc1.Cc1ccc(C(C)C)cc1.[Cl-]", 104),
    ("CC(C)(C)c1ccc(C[S]2[Ru]3[S](Cc4ccc(C(C)(C)C)cc4)[Ru+]2[S]3c2ccc(-n3cc(Cn4cnc5c(N)ncnc54)nn3)cc2)cc1.Cc1ccc(C(C)C)cc1.Cc1ccc(C(C)C)cc1.[Cl-]", 109),
    ("Cc1ccc(C(C)C)cc1.Cc1ccc(C(C)C)cc1.Cc1cn(Cc2cn(Cc3ccccc3[S+]3[Ru-]4[S+](Cc5ccc(C(C)(C)C)cc5)[Ru-]3[S+]4Cc3ccc(C(C)(C)C)cc3)nn2)c(=O)[nH]c1=O.[Cl-] (stereo not drawn)", 100),
    ("CC(C)(C)c1ccc(C[S]2[Ru]3[S](Cc4ccc(C(C)(C)C)cc4)[Ru+]2[S]3c2ccc(CC(=O)NCc3cn(Cc4cc(=O)[nH]c(=O)[nH]4)nn3)cc2)cc1.Cc1ccc(C(C)C)cc1.Cc1ccc(C(C)C)cc1.[Cl-]", 99),
    ("CC(C)(C)c1ccc(C[S]2[Ru]3[S](Cc4ccc(C(C)(C)C)cc4)[Ru+]2[S]3c2ccc(-n3cc(Cn4ccc(N)nc4=O)nn3)cc2)cc1.Cc1ccc(C(C)C)cc1.Cc1ccc(C(C)C)cc1.[Cl-]", 94),
]

Batch lookup, HFF Viability (%) per entry.
1. CC(C)(C)c1ccc(C[S]2[Ru]3[S](Cc4ccc(C(C)(C)C)cc4)[Ru+]2[S]3c2ccccc2Cn2cc(-c3ccc(CO)cc3)nn2)cc1.Cc1ccc(C(C)C)cc1.Cc1ccc(C(C)C)cc1.[Cl-]
2. NC(=O)c1ccc(-c2cn(Cc3cc(=O)[nH]c(=O)[nH]3)nn2)cc1
3. CC(C)(C)c1ccc(C[S]2[Ru]3[S](Cc4ccc(C(C)(C)C)cc4)[Ru+]2[S]3c2ccccc2Cn2cc(Cn3ccc(N)nc3=O)nn2)cc1.Cc1ccc(C(C)C)cc1.Cc1ccc(C(C)C)cc1.[Cl-]

1: 89; 2: 101; 3: 109

Cited source: paper PMC9738179
